Data origin: PubChem BioAssay AID488890

assay: growth inhibition of non-replicating M. tuberculosis (AID 488890); conditions: Mycobacterium tuberculosis non-replicating, at 25 µM, stronger effect = higher value;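 further: plate controls were DMSO cells for no effect and high antibiotic wells for full effect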
About 1,300 (0.41%) of roughly 320,000 compounds were called active. Another 3% or so got no clear call; they are omitted. A selection follows. Measured potencies and affinities stand elsewhere.
inhibition listing for selected compounds.

Worked examples follow.
CC1CCN(C(=O)COC(=O)c2cc3ccccc3oc2=O)CC1 :: 11.8%
O=C(COc1ccc(Cl)cc1)OCC(=O)N1CCCCCC1 :: 70.8%
CC1CCN(C(=O)c2cc3ccccc3cc2O)CC1 :: 62%
Cc1cccc(C(=O)OCC(=O)N2CCCCCC2)c1 :: 12%
NC(=O)C1CCN(C(=O)COc2ccc(Nc3ccccc3)cc2)CC1 :: 24.7%

Switching to the query record.
IN: Consider the compound shown here: O=C(c1cc2ccccc2cc1O)N1CCCC1 What is its recorded inhibition?
OUT: 5.6%

----------
inhibition listing for selected molecules.
test: growth inhibition of non-replicating M. tuberculosis (AID 488890); details: Mycobacterium tuberculosis non-replicating, at 25 µM, stronger effect = higher value
Screen size: about 320,000 compounds; about 1,300 (0.41%) were called active. Inconclusive results (about 3%) are left out. Only a sample is shown. Potency and affinity values are given separately.
Express your answer in %, writing the number without its unit.

Field: example entries. Status: answers known.
Cc1ccc(CNC(=O)C2(C)Oc3ccccc3NC2=O)cc1 (stereo unspecified) :: -3.05
Nc1c(C(=O)c2ccccc2)sc2c1c(=O)[nH]c(=O)n2-c1ccccc1 :: 6.25
CC1CCC(C(C)C)C(OC(=O)C[n+]2cc(-c3ccc(Cl)cc3)n3c2CCC3)C1 (stereo unspecified) :: 49.4
Cc1ccc2nc(-c3ccncc3)cc(C(=O)N3CCC4(CC3)OCCO4)c2c1 :: 8.38
CCN(CC)S(=O)(=O)c1ccc(NS(=O)(=O)c2ccc(OC)c([N+](=O)[O-])c2)cc1 :: -6.27

IN: Reported inhibition for Cc1nc(-c2ccc(NC(=O)C(C)(C)C)cc2)c(-c2ccccc2)o1 : what is it?
OUT: -0.61

IN: Same read-out for CC(C)OC(=O)Cn1cc(C#N)c2ccccc21 ?
OUT: 17

IN: Lookup COc1ccccc1-n1c(-c2ccccc2Br)nc2ccccc2c1=O
OUT: 5.34

----------
assay: growth inhibition of non-replicating M. tuberculosis (AID 488890); conditions: Mycobacterium tuberculosis non-replicating, at 25 µM, stronger effect = higher value
The campaign covered roughly 320,000 compounds. About 1,300 (0.41%) were called active. Another 3% or so got no clear call; they are omitted. A selection follows. Results with a measured potency or affinity are listed apart.
MEASURED_ATTRIBUTE: inhibition (%)
Your answer is read as %, so omit the unit and give the number.

Before answering, review these 2 worked examples.
Cc1cc(Cl)ccc1C(=O)C1CCCN(C(=O)c2cc(C(C)C)no2)C1 (centres undefined) :: 45.6
CCc1ccc(C(=O)NCc2cnn(C)c2)s1 :: 6.54

IN: Quick one: inhibition for Cc1c(C(=O)N(C)C)c2cc(Cl)ccc2n1O ?
OUT: 8.07

IN: Next up: CC1(C)CC(=O)C2=C(C1)N(c1ccc(F)cc1)C(=O)C2(O)C(F)(F)F (centres undefined)
OUT: -0.41

IN: Can you check O=C1NC2(CCC3(CC2)OCCO3)NN1c1ccccc1 next?
OUT: 14.8

IN: Field entry: OCC1(CCOc2ccccc2)CCN(Cc2ccc3c(c2)OCCO3)CC1
OUT: 14.7

IN: Also need O=C(Nc1c(F)cc(F)cc1Br)c1cc(-c2ccc(O)cc2)on1 , thanks.
OUT: 79.2

IN: Repeat with Cc1cc(C(=O)NNc2ccc(F)cc2)no1
OUT: 57.1

IN: Now give it for O=C1C(c2ccccc2)=C(N2CC2)c2ccccc21 too.
OUT: 15.4

IN: Further, for Cc1cc(C(=O)NNC(=O)Nc2ccc(Cl)cc2)no1 ?
OUT: -6.49

IN: Now try CN(CC(O)COCc1cccs1)C1CCCCC1 (centres undefined) .
OUT: 4.88

IN: Try this compound too: COc1ccc(CNC(=O)N2CCN(c3ccccc3OC)CC2)cc1
OUT: 1.13

IN: Would you kindly repeat that for CCc1nc(N(CC)CC)c2oc3ccccc3c2n1 ?
OUT: 25.6

IN: Then this compound: C=CCn1c(=S)[nH]c2cc(C(=O)Nc3ccc(OC)c(OC)c3)ccc2c1=O
OUT: -8.59

IN: And the next one, Cc1c(CC(=O)O)c(=O)oc2c(C)c(OCc3ccccc3)ccc12 ?
OUT: -3.08

IN: Query COc1ccc(OC)c(C(c2nnnn2CC2CCCO2)N2CCN(C)CC2)c1 (centres undefined) next
OUT: 9.88

IN: Moving on to the next compound: CCCc1nnc(NC(=O)CCC(=O)Nc2ccc(F)cc2)s1
OUT: -5.14

IN: Would you kindly repeat that for Cc1ccccc1N=C(NO)c1nonc1N ?
OUT: -6.6

----------
experiment: growth inhibition of non-replicating M. tuberculosis (AID 488890); details: Mycobacterium tuberculosis non-replicating, at 25 µM, stronger effect = higher value;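 further: plate controls were DMSO cells for no effect and high antibiotic wells for full effect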
The whole screen tested about 320,000 compounds, of which about 1,300 (0.41%) were called active. Roughly 3% stayed inconclusive and do not appear here. A selection follows. Potency and affinity values are given separately.
# maps each entry to its inhibition
All answers are understood in %, so give the number only.

O=C1c2cccc3cccc(c23)C(=O)N1c1ccccn1 :: -12.3
CCCCN(C(=O)C1CC(=O)N(c2ccc3c(c2)OCCO3)C1)c1c(N)n(CCCC)c(=O)[nH]c1=O (stereo not given) :: 0.16
COCCN1CCn2c(nc3cc(NC(=O)Cn4nc(C)c5ccccc5c4=O)ccc32)C1 :: -5.63
COc1ccccc1Nc1c([N+](=O)[O-])cncc1[N+](=O)[O-] :: 55.7
COc1ccc(CCNC(=O)C2CCN(C(=O)c3ccc(Br)cc3)CC2)cc1OC :: -3.89

IN: Requested field: inhibition. Item: O=[N+]([O-])c1cc(/C=N/OCc2c(Cl)cccc2Cl)ccc1N1CCOCC1
OUT: 22.5

IN: Can you handle Cc1ccc(C(=O)OCC(=O)Nc2ccc3c(c2)OCO3)c(O)c1 next?
OUT: -15.4

IN: Also need COc1ccc(OCCCC(=O)NCc2ccco2)cc1 , thanks.
OUT: 56.7

IN: And what about the compound CCc1cccc(OCC(=O)Nc2c[nH]c(=O)[nH]c2=O)c1 ?
OUT: -17.2

IN: Likewise for CCn1cc(C(=O)NCC2CCCO2)c(=O)c2cc(S(=O)(=O)N3CCCCCC3)ccc21 (stereo not given) ?
OUT: 4.04

IN: Quick one: O=C1c2ccccc2C(=O)N1c1ccc(Cl)cn1
OUT: 7.35

IN: Another: CC1(C)CC2CC(C)(CN2C(=O)COC(=O)c2cccnc2Cl)C1 (stereo not given)
OUT: 14.2

IN: Please give the result for CC(=O)Nc1ccc(N=Nc2c(C)[nH]n(C(N)=S)c2=O)cc1 too.
OUT: -7.76

IN: Field entry: CCCCOC(=O)C1CCCC(C)N1 (stereo not given)
OUT: 0.64

IN: Okay, and COc1ccc(/C(C)=N/Nc2nc3ccccc3nc2C)cc1 ?
OUT: -2.93

----------
Parameter inhibition: see the listing below.
assay: growth inhibition of non-replicating M. tuberculosis (AID 488890); conditions: Mycobacterium tuberculosis non-replicating, at 25 µM, stronger effect = higher value;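 further: plate controls were DMSO cells for no effect and high antibiotic wells for full effect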
Out of some 320,000 compounds screened, about 1,300 (0.41%) were called active. About 3% were inconclusive and are not listed. The list is a sample of the results. Results with a measured potency or affinity are listed apart.
Provide the reading as a plain figure in %.

Cc1ccc(C2(C)NC(=O)N(CC(=O)N(C)CC(=O)Nc3cccc4ccccc34)C2=O)cc1 (configuration not stated) :: 7.1
COCCOC(=O)c1c(C)oc2ccc(OC(=O)c3c(OC)cccc3OC)cc12 :: 0.6

IN: I have this compound here, Cc1occc1C(=O)NNC(=O)NC12CC3CC(CC(C3)C1)C2 , and I need its recorded inhibition.
OUT: 1.27

IN: Further, for O=c1c2ccccc2nc(/C=C/c2ccc(F)cc2)n1-c1ccccn1 ?
OUT: -7.61

IN: Record: NC(=O)NCCC1=CCCCC1
OUT: -8.64

----------
experiment: growth inhibition of non-replicating M. tuberculosis (AID 488890); details: Mycobacterium tuberculosis non-replicating, at 25 µM, stronger effect = higher value;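 further: plate controls were DMSO cells for no effect and high antibiotic wells for full effect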
Screen size: about 320,000 compounds; about 1,300 (0.41%) were called active. About 3% were inconclusive and are not listed. Not all results are given here. Results with a measured potency or affinity are listed apart.
Kind request: treat 40% as inclusive, so inhibition at 40% or higher is TRUE, anything lower is FALSE.

Consider the worked cases shown below.
Cc1ccc2nsnc2c1NC(=O)c1ccc([N+](=O)[O-])o1 :: TRUE
CS(=O)(=O)c1ccc(-c2nnc(NC(=O)c3ccco3)o2)cc1 :: TRUE

--- query ---
IN: I'd appreciate it if you could say whether COc1cc(OC)cc(C(=O)NC(=S)N2C[C@H]3C[C@H](C2)c2cccc(=O)n2C3)c1 has inhibition at least equal to 40%.
OUT: FALSE
